assay-protocol: Cytotoxicity against human HepG2 cells assessed as decrease in ATP signal after 2 days by CellTiter-Glo assay
Assay type: cell-based
measurement-conditions: read-out: LD50
observable: log10 of CC50 at 48 h (log10 of the value in mg/L)
Please note: log10 values; quantity CC50 at 48 h; unit mg/L.

Entry CCCc1cc(=O)oc2c1c(OCCN1CCCC1)cc1oc([N+](=O)[O-])cc12 — recorded log10 of CC50 at 48 h = 0.00

Record summary for CCCc1cc(=O)oc2c1c1c(c3oc([N+](=O)[O-])cc32)C=CC(c2ccccc2)O1 (stereo not drawn) : reported log10 of CC50 at 48 h = 0.48

Sure, the documented log10 of CC50 at 48 h for CCCc1cc(=O)oc2c1c(OCCN1CCOCC1)cc1oc([N+](=O)[O-])cc12 is 1.00

Form: molecule = O=C(OCCOc1cc2c(c3oc(=O)c4c(c13)CCCC4)[C@H](O)[C@@H]([N+](=O)[O-])O2)c1cnccn1 (racemic) ; log10 of CC50 at 48 h = -0.40

Note to self: log10 of CC50 at 48 h recorded for O=c1oc2c3c(cc(OCCN4CCOCC4)c2c2c1CCCC2)O[C@H]([N+](=O)[O-])[C@H]3O (racemic) was -0.40

log10 of CC50 at 48 h reported for this molecule CCCc1cc(=O)oc2c1c(OCCN1CCOCC1)cc1oc([N+](=O)[O-])c(C(C)C)c12 : 1.34

Notebook: CCCc1cc(=O)oc2c3c(cc(OCCN4CCOCC4)c12)O[C@H]([N+](=O)[O-])[C@H]3O , log10 of CC50 at 48 h read as 0.30

Looking up CCCc1cc(=O)oc2c3c(c4c(c12)OC(C)(C)C=C4)O[C@H]([N+](=O)[O-])[C@H]3O (relative stereo) , I found its log10 of CC50 at 48 h recorded as 0.48

Summary for this molecule, CN1CCN(Cc2cc(=O)oc3c2c2c(c4oc([N+](=O)[O-])cc43)C=CC(C)(C)O2)CC1 : log10 of CC50 at 48 h is 0.48

====

Test system: Mycobacterium tuberculosis
assay-protocol: Antibacterial activity against non-replicating form of Mycobacterium tuberculosis MC2 6220 assessed as growth inhibition after 3 days by high-throughput screening assay
Format: functional
measurement-conditions: MC2 6220, 72 h
observable: MIC90

The compound listed as CCCc1cc(=O)oc2cc(OC(C)C)c3c(c12)OC(C)(C)C=C3 has a reported MIC90 of > 16 µg/mL

Input CCCc1cc(=O)oc2cc(N(C)C)c3c(c12)OC(C)(C)C=C3 . Output MIC90: > 16 µg/mL

The reported value for CCCc1cc(=O)oc2c1c(OC)cc1oc([N+](=O)[O-])cc12 in terms of MIC90 is < 0.2 µg/mL

MIC90 reported for this compound CCCc1cc(=O)oc2cc(OC(C)=O)c3c(c12)OC(C)(C)C=C3 : > 16 µg/mL

For record CCCc1cc(=O)oc2cc(OC3CCCCC3)c3c(c12)OC(C)(C)C=C3 the listed MIC90 is > 18 µg/mL

Short answer for CCCc1cc(=O)oc2c(C(=O)CC)c(N3CCOCC3)c3c(c12)OC(C)(C)C=C3 : MIC90 was > 21 µg/mL

Data point: Cc1cc(=O)oc2cc(-c3ccc([N+](=O)[O-])o3)c3c(c12)OC(C)(C)C=C3 ; MIC90 = > 18 µg/mL

Sample CCCC1CC(=O)Oc2c1c1c(c3oc([N+](=O)[O-])cc23)C=CC(C)(C)O1 (stereo not given) ; MIC90 observed: > 18 µg/mL

Memo: O=[N+]([O-])c1cc2ccccc2o1 , reported MIC90: > 100 µg/mL

In plain terms, CCCc1cc(=O)oc2c(C(=O)CC)c(N3CCSCC3)c3c(c12)OC(C)(C)C=C3 has a documented MIC90 of > 21 µg/mL

Source: ChEMBL document CHEMBL3259717
